# subjectOfTest: T1, recombinant Thioredoxin-His-tagged PfPIMMS43 (amino acids 26-481), full-length (FL) recombinant PfPIMMS43 (Plasmodium falciparum, 3D7 entry (NF54 …, UniProt C6KT40))
# T1 construct: PfPIMMS43 (PSOP25) of Plasmodium falciparum, a 505-amino acid protein; E. coli codon-optimised; the methods give 25-481; pET-32b vector; Results give 26-481, methods 25-481; also called TRX-His-PfPIMMS43; PSOP25; not shown: Thioredoxin (TRX), N-terminal, kept; His6, N-terminal, kept; His6, C-terminal, kept
# protocolText: ELISA; dose response ELISA; MaxiSorp plates coated with 2 ug/mL recombinant PfPIMMS43 in PBS overnight, blocked with 4% skimmed milk; VHH from 1000 nM in serial 1:10 dilutions, 1 h at room temperature; detected with rabbit anti-VHH and donkey anti-rabbit HRP, OPD, 490 nm
# conditionContext: both partners purified

- binder: "PfPIMMS43 nanobody A3 (VHH, llama VHH; From an immune llama library (Eurogentec, pQ81 phagemid); CDR2 of 7 amino acids) VHH: EVQLVESGGGLVQPGGSLRLSCAASGSIFDKNGMGWFRQPPGRQRELVASITTDGNKHYGDDAKGRFTISRDIAKKTAYLQMNSLKPEDTAVYYCATTRGNYYSKSPPPIYDYYYWGQGTQVTVSS"
  binding affinity (dose response ELISA): "> 50 nM"
- binder: "PfPIMMS43 nanobody G9 (VHH, llama VHH; From an immune llama library (Eurogentec, pQ81 phagemid); CDR3 of 20 amino acids) VHH: EVQLVESGGGLVQAGGSLRLSCAASEGTFSDYGMGWFRQAPGKEREFVASISWSGGRTGYRSSVKGRFTISRDNAKNTVYLQMNSLKPEDTAVYYCGAMSKYYRGDWSSRVTNYDDWGQGTQVTVSS"
  binding affinity (dose response ELISA): "3 nM"
- binder: "PfPIMMS43 nanobody E2 (VHH, llama VHH; From an immune llama library (Eurogentec, pQ81 phagemid); CDR2 of 7 amino acids) VHH: EVQLVESGGGLVQAGGSLRLSCAASGLTFNGDSMGWFRQAPGKEREFVAAIRWNEVAYYADFVKGRFTISRDNAKNTVTLQMNSLKPEDTAVYYCGAGVRAYSYTTRLTSASEYTYWGQGTQVTVSS"
  binding affinity (dose response ELISA): "8 nM"
- binder: "PfPIMMS43 nanobody C12 (VHH, llama VHH; From an immune llama library (Eurogentec, pQ81 phagemid)) VHH: EVQLVESGGGLVQAGGSLRLSCVDSGRTLSSYTMGWFRQAPGKEREFVAAVHYTGRRTYYADSVKGRFTISRDNDKNTVLLQMNSLKPEDTAVYYCAATEPPHSDYSTRLYNYHYWGQGTQVTVSS"
  binding affinity (dose response ELISA): "6 nM"
- binder: "PfPIMMS43 nanobody H6 (VHH, llama VHH; From an immune llama library (Eurogentec, pQ81 phagemid)) VHH: EVQLVESGGALVQAGNSLRLSCAASGRTFRSYVMGWFRQAPEKEREFVARIGWSAGSTYYTDSVKGRFTISRDDAKNTVYLQMNSLKPEDTAVYYCAAGRGYSDYDPSVGYGYWGQGTQVTVSS"
  binding affinity (dose response ELISA): "> 50 nM"
